TARGET OF ASSAY: human CYP2C9 (Homo sapiens)
Sequence (P11712 whole entry): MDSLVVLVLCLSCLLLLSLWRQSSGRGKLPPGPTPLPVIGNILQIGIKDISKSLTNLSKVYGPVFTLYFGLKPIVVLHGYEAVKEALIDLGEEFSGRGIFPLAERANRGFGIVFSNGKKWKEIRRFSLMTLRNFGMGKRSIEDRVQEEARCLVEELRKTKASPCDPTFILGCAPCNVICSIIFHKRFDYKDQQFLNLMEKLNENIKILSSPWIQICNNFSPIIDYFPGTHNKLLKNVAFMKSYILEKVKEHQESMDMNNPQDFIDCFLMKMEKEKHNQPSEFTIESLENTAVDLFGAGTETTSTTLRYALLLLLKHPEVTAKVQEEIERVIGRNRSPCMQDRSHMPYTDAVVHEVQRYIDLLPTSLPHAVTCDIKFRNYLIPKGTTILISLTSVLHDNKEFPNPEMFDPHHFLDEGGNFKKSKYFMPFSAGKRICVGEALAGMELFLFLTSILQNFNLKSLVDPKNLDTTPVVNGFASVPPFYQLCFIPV
Counter-ions that a name gives are not always drawn.
REPORTED PROPERTY: CYP2C9 IC50 (half-maximal inhibitory concentration)

Sample records with CYP2C9 IC50 (half-maximal inhibitory concentration):
O=C1c2ccccc2C(=O)c2cc(Cl)ccc21: Inactive
CCc1cc(Cl)c(OC)c(C(=O)NC[C@@H]2CCCN2CC)c1O.Cl [Eticlopride hydrochloride]: Inactive
O=[N+]([O-])c1ccc2ccc3cccc4ccc1c2c34: Inactive
COc1cccc(CCc2ccccc2OCC(CN(C)C)OC(=O)CCC(=O)O)c1.Cl (stereo not drawn) [Sarpogrelate hydrochloride]: Inactive
CN(C)CCCN1c2ccccc2Sc2ccc(C(F)(F)F)cc21 [Triflupromazine hydrochloride]: Inactive
Cn1ccc2cc3c(cc21)CCN3C(=O)Nc1cccnc1: Inactive

// query Return the recorded CYP2C9 IC50 (half-maximal inhibitory concentration) value; entry: CN1CCCC(CC2c3ccccc3Sc3ccccc32)C1 (stereo not drawn) [Metixene hydrochloride]
// result Inactive

// query Return the recorded CYP2C9 IC50 (half-maximal inhibitory concentration) value; entry: CN1CCCCC1CCN1c2ccccc2Sc2ccc([S+](C)[O-])cc21 (stereo not drawn)
// result Inactive

// query Return the recorded CYP2C9 IC50 (half-maximal inhibitory concentration) value; entry: CC(C)(Cc1c[nH]c2ccccc12)NCC(O)COc1ccccc1C#N (stereo not drawn)
// result Inactive
